- measured.on: T1, HaloTag-ATRX ADD domain (163-292)
- T1 chain: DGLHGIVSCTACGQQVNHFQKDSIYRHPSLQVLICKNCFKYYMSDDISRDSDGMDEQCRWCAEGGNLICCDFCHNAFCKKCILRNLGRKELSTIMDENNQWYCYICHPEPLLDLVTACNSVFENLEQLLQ
- assay.protocol: peptide microarray binding signal (635 nm), min-max normalized on array (fraction of array maximum); higher = stronger binding
- condition.notes: peptide region: Unmod H2A variant; binder concentration: 50 nM
measurement.kind: peptide microarray binding signal
One number for each entry.

For each listed entry, give its peptide microarray binding signal.
1. ILELAGNASRDNK [Unmod H2A variant I L E L A G N A S R D N K]
2. KGNYSERVGAGAP [Unmod H2A variant K G N Y S E R V G A G A P]
3. KGNYAERIGAGAP [Unmod H2A variant K G N Y A E R I G A G A P]
4. LNKLLGGVTIAQG [Unmod H2A variant L N K L L G G V T I A Q G]
5. KGNYAERVGAGAP [Unmod H2A variant K G N Y A E R V G A G A P]
6. SGRGKQGGKARAK [Unmod H2A variant S G R G K Q G G K A R A K]
7. LQLAIRNDEELNK [Unmod H2A variant L Q L A I R N D E E L N K]

[0.0191, 0.019, 0.0345, 0.027, 0.0103, 0.0203, 0.0213]
